# Tested on: HOP-62
# Assay Notes: NCI tumour cell line growth inhibition, 48 h
Activity calls are given as the source filed them. No stated cut-off is given here; in the data, active = GI50 up to about 1.1 µM and inactive = higher.
The categories you may choose from are active, inactive

Example entries and their recorded answers appear below.
Compound	Tested Target	Category
CC12CC(c3ccccc3O1)C(C(=O)Nc1ccc(Cl)cc1Cl)C(=O)N2 (stereo not given)	HOP-62	inactive
C[C@]12Cc3cnn(-c4ccc(F)cc4)c3NC1CC[C@@H]1C2CC[C@@]2(C)C1CC[C@@H]2O (stereo not given in full)	HOP-62	inactive

In: Entry CC(=O)NC1C(OCc2ccccc2)OC(COC(=O)CCCCCCCCCCNC(=O)c2cccc3c(=O)c4ccccc4[nH]c23)C(O)C1OC(C)C(=O)NC(C)C(=O)NC(CCC(N)=O)C(N)=O (stereo not given) : call = ?
Out: inactive

In: Entry Cc1cn(CC2=NCC(C)(C)CN2)c(=O)[nH]c1=O : call = ?
Out: inactive

In: Entry [N-]=[N+]=NC1C(Br)C(=O)NC(=O)N1[C@H]1C[C@H](O)[C@@H](CO)O1 (stereo not given in full) : call = ?
Out: inactive

In: Entry C[C@@H](CO)C1=CC(C#C[Si](C)(C)C)N(C(=O)Oc2ccccc2)c2ccccc21 (stereo not given in full) : call = ?
Out: inactive

In: Entry COc1ccc2nc(-c3ccccn3)cc(O)c2c1 : call = ?
Out: inactive

---

# System: SF-539
# Assay Notes: NCI tumour cell line growth inhibition, 48 h
Activity calls are given as the source filed them. Rule as the data show it: active = GI50 up to about 1.1 µM and inactive = higher.
Attribute Measured: GI50

Observe how each entry below is paired with its result.
Compound	Tested Target	GI50
COc1cc(/C=C2\N=C(c3ccccc3)N(c3cc4cc(Sc5ccccc5)ccc4[nH]3)C2=O)cc(OC)c1OC	SF-539	12.3 µM (inactive)
[N-]=[N+]=NC1C(Br)C(=O)NC(=O)N1[C@H]1C[C@H](O)[C@@H](CO)O1 (stereo partly specified)	SF-539	> 100 µM (inactive)
c1cncc(O[Si](Oc2cccnc2)(Oc2cccnc2)Oc2cccnc2)c1	SF-539	> 100 µM (inactive)
CC[C@@H]1/C=C/C=C/C[C@H](C)[C@@H](O)[C@](C)(O)C(=O)[C@H](C)[C@@H](O)[C@H](C)C(=O)[C@H](C)[C@@H](O)[C@H](C)/C=C/C(=O)O[C@H]2[C@@H](C)[C@@H](CC1)O[C@@]1(CC[C@@H](C)[C@@H](CC(C)O)O1)[C@@H]2C (stereo partly specified)	SF-539	3.58 µM (inactive)
CC[S+](C)c1ccc(-c2c3nc(c(-c4ccc([S+](C)CC)cc4)c4ccc([nH]4)c(-c4ccc([S+](C)CC)cc4)c4nc(c(-c5ccc([S+](C)CC)cc5)c5ccc2[nH]5)C=C4)C=C3)cc1.[O-][Cl+3]([O-])([O-])[O-].[O-][Cl+3]([O-])([O-])[O-].[O-][Cl+3]([O-])([O-])[O-].[O-][Cl+3]([O-])([O-])[O-] (stereo unspecified)	SF-539	27.4 µM (inactive)

// each compound listed below needs its GI50
1. CC(=O)c1cc(S(=O)(=O)c2ccc(O)c(C(C)=O)c2)ccc1O
2. C=CC[C@@]12CCC(=O)C=C1CCCC2=O
3. O=C(OC1CCC2OOC1O2)c1ccc([N+](=O)[O-])cc1 (stereo unspecified)
4. Cc1ccc(NC(=O)CC2C(=O)Nc3ccccc3[S+]2[O-])c(C)c1 (stereo unspecified)
5. C#Cc1cccc(N2C(=O)c3c(c(-c4ccccc4)c(-c4ccc(Cc5ccc(-c6c(-c7ccccc7)c7c(c(-c8ccccc8)c6-c6ccccc6)C(=O)N(c6cccc(C#C)c6)C7=O)cc5)cc4)c(-c4ccccc4)c3-c3ccccc3)C2=O)c1
6. C#CCCCCC#Cc1ccccc1C(=O)C=[N+]=[N-]

Out:
1: 30.2 µM (inactive); 2: > 100 µM (inactive); 3: > 100 µM (inactive); 4: 12.9 µM (inactive); 5: 21.2 µM (inactive); 6: > 100 µM (inactive)
